# test_system: peroxiredoxin 3 (PRDX3) (Homo sapiens, UniProt P30048)
# Sequence (P30048 62-256): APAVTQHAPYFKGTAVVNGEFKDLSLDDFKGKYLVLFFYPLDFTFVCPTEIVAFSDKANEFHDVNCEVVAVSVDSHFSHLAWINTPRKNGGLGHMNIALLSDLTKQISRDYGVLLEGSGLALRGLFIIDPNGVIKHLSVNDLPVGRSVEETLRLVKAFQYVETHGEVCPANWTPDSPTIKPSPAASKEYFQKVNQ
readout_kind: pKd
The quantity pKd is defined as the negative base-10 logarithm of the molar concentration.

What does the record list as pKd for COc1ccc2cc3[n+](cc2c1OC)CCc1cc2c(cc1-3)OCO2 ?
4.63

---

# test_system: EIF2AK2 (Homo sapiens, UniProt P19525)
# Sequence (P19525 2-551): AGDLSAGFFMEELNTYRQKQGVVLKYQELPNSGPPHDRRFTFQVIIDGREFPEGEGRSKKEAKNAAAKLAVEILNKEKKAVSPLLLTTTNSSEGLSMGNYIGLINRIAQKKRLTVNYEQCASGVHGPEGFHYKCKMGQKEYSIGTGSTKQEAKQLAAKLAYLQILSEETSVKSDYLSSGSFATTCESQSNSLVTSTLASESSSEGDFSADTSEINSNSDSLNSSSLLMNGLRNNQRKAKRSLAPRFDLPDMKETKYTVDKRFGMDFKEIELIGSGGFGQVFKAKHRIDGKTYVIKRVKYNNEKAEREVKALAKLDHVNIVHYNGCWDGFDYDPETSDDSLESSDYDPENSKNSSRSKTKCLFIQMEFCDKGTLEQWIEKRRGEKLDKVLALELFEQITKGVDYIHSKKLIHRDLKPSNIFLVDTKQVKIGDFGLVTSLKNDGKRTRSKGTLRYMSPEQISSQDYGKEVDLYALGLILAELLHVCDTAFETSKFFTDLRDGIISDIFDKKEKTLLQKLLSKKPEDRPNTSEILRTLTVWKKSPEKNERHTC
readout_kind: IC50 (nM)
Report the value in nM with no unit label.

Reported IC50 for EIF2AK2 (Homo sapiens, UniProt P19525), given O=C1Nc2ccc3ncsc3c2/C1=C/c1c[nH]cn1 ?
1010

---

# test_system: vacuolar protein sorting 4 homolog B (VPS4B) (Homo sapiens, UniProt O75351)
# Sequence (O75351 whole entry): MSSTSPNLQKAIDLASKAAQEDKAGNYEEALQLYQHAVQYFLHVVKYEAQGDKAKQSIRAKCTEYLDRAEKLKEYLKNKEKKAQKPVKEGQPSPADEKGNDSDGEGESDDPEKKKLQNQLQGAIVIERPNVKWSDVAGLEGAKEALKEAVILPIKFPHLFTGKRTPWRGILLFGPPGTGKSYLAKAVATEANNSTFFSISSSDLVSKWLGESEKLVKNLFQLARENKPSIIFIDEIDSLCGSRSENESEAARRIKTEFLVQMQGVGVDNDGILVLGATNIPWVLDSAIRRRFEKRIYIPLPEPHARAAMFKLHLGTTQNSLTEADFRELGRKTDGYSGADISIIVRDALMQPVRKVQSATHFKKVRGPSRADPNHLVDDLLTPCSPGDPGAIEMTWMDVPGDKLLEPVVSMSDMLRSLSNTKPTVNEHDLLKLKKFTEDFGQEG
readout_kind: pKd
pKd field: float, defined as -log10 of concentration (mol/L).

Notebook entry, vacuolar protein sorting 4 homolog B (VPS4B) (Homo sapiens, UniProt O75351) assay: pKd of COc1ccc2cc3[n+](cc2c1OC)CCc1cc2c(cc1-3)OCO2 = ?
4.77

// data source = paper PMC10213791
